# system.name: recombinant human MetAP2 (Homo sapiens, UniProt P50579)
# Construct: made in house; host or cells: High Five insect cells (Bac-to-Bac baculovirus)
# Sequence (P50579 whole entry): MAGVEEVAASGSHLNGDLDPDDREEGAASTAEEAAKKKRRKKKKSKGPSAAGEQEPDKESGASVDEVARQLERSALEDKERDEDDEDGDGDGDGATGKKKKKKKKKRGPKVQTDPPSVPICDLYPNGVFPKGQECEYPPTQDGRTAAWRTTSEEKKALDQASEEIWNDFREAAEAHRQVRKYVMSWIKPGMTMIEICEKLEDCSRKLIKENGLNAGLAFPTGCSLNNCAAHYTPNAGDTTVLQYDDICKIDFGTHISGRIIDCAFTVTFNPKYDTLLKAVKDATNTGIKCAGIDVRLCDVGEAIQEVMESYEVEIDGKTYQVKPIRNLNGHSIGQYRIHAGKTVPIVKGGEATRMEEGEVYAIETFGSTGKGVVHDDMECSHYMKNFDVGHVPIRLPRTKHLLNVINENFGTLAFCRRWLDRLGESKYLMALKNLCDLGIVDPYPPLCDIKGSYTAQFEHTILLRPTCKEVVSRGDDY
# experiment: MetAP2 enzyme assay (inhibition of recombinant MetAP2, Met-Gly-Met-Met substrate)
# Assay type: biochemical
# setup.conditions: 4 hr, 50 nM; read-out: MetAP2 Enzyme Assay 4 hr 50 nM
# Method: Exemplary procedures for expression and purification of MetAP2 are shown in Griffith et al. (PNAS (1998) 95(26):15183-15188). Briefly, recombinant His-tagged human MetAP2 is expressed by using a Bac-to-Bac baculovirus expression system (GIBCO/BRL). […] An enzyme assay is performed in a 96-well format as described in Griffith et al. (PNAS (1998) 95(26):15183-15188). […] Released methionine is quantitated as described in Ben-Bassat et al. (J Bacteriol (1987) 169:751-757). […]
measurement.kind: inhibition at 0.05 µM (%)
One number for each entry, in %.

Completed entries (count: 6):
[
  {
    "compound": "CO[C@@H]1C(=O)CC[C@]2(CO2)[C@H]1[C@@]1(C)O[C@@H]1CC=C(C)C [Example 8, fumagillin ketone]",
    "system.name": "recombinant human MetAP2 (Homo sapiens, UniProt P50579)",
    "measurement.kind": "inhibition at 0.05 µM",
    "result.value": 93
  },
  {
    "compound": "CO[C@@H]1C(=O)CC[C@]2(CO2)[C@H]1C1(C)O[C@@H]1CC(=O)O (stereo partly shown)",
    "system.name": "recombinant human MetAP2 (Homo sapiens, UniProt P50579)",
    "measurement.kind": "inhibition at 0.05 µM",
    "result.value": 0
  },
  {
    "compound": "CO[C@@H]1[C@H](OC(=O)N[C@@H](C(=O)NCCC2CCCN2C)C(C)C)CC[C@]2(CO2)[C@H]1[C@@]1(C)O[C@@H]1CC=C(C)C (stereo partly shown)",
    "system.name": "recombinant human MetAP2 (Homo sapiens, UniProt P50579)",
    "measurement.kind": "inhibition at 0.05 µM",
    "result.value": 43
  },
  {
    "compound": "CO[C@@H]1[C@H](OC(=O)NCCC2CCCN2C)CC[C@]2(CO2)[C@H]1[C@@]1(C)O[C@@H]1CC=C(C)C (stereo partly shown)",
    "system.name": "recombinant human MetAP2 (Homo sapiens, UniProt P50579)",
    "measurement.kind": "inhibition at 0.05 µM",
    "result.value": 63
  },
  {
    "compound": "CO[C@@H]1C(=O)CC[C@]2(CO2)[C@H]1C1(C)O[C@@H]1CCC(C)C (stereo in doubt)",
    "system.name": "recombinant human MetAP2 (Homo sapiens, UniProt P50579)",
    "measurement.kind": "inhibition at 0.05 µM",
    "result.value": 17
  },
  {
    "compound": "CO[C@@H]1[C@H](OC(=O)N[C@@H](C(N)=O)C(C)C)CC[C@]2(CO2)[C@H]1[C@@]1(C)O[C@@H]1CC=C(C)C",
    "system.name": "recombinant human MetAP2 (Homo sapiens, UniProt P50579)",
    "measurement.kind": "inhibition at 0.05 µM",
    "result.value": 100
  }
]

Give me inhibition at 0.05 µM for each of these compounds, listed below.
1. CO[C@H]1[C@H]([C@@]2(C)O[C@@H]2CC=C(C)C)[C@]2(CCC1(F)F)CO2
2. CO[C@@H]1[C@H](OC(=O)CCCCCCCCC(=O)O)CC[C@]2(CO2)[C@H]1[C@@]1(C)O[C@@H]1CCC(C)C
3. COC(=O)CCCCCCCCCO[C@@H]1CC[C@]2(CO2)[C@@H]([C@@]2(C)O[C@@H]2CC=C(C)C)[C@@H]1OC
4. CCCCCCCCCCS[C@@H]1CC[C@]2(CO2)[C@@H]([C@@]2(C)O[C@@H]2CC=C(C)C)[C@@H]1OC
5. C=C1CC[C@]2(CO2)[C@@H]([C@@]2(C)O[C@@H]2C/C=C/CCCC)[C@@H]1OC
6. CO[C@@H]1C(C)CC[C@]2(CO2)[C@H]1[C@@]1(C)O[C@@H]1CCC(C)C (stereo partly shown)
7. CO[C@@H]1[C@H](NCCCCCCCCCC(=O)O)CC[C@]2(CO2)[C@H]1[C@@]1(C)O[C@@H]1CC=C(C)C

1. 40
2. 50
3. 0
4. 0
5. 0
6. 0
7. 0

Hi! Can you tell me inhibition at 0.05 µM for each of these compounds?
1. CCOC(=O)CCCCC/C=C/C[C@H]1OC1(C)[C@H]1[C@H](OC)C(=O)CC[C@]12CO2 (stereo partly shown)
2. CO[C@@H]1C(=O)C(C)C[C@]2(CO2)C1[C@@]1(C)O[C@@H]1CC=C(C)C (stereo partly shown)
3. CCCC/C=C/C[C@H]1O[C@]1(C)[C@H]1[C@H](OC)[C@H](O)CC[C@]12CO2

1: 0; 2: 28; 3: 0

Count: 6. Required value per item: inhibition at 0.05 µM.
1. CO[C@@H]1C(=O)CC[C@]2(CO2)[C@H]1C1(C)O[C@@H]1CC(=O)NCc1ccccc1 (stereo partly shown)
2. CCCCCCCC/C=C\CCCCCCCC(=O)O[C@@H]1CC[C@]2(CO2)[C@@H]([C@@]2(C)O[C@@H]2CC=C(C)C)[C@@H]1OC
3. CO[C@@H]1[C@H](OC(=O)CCCCCCCCC(=O)O)CC[C@]2(CO2)[C@H]1[C@@]1(C)O[C@@H]1CC=C(C)C
4. CCCC/C=C/C[C@H]1O[C@]1(C)[C@H]1[C@H](OC)C(=O)CC[C@]12CO2
5. CO[C@@H]1[C@H](OC(=O)NC2CN3CCC2CC3)CC[C@]2(CO2)[C@H]1[C@@]1(C)O[C@@H]1CC=C(C)C (stereo partly shown)
6. CCCCCCCCCC=C1CC[C@]2(CO2)[C@@H]([C@@]2(C)O[C@@H]2CC=C(C)C)[C@@H]1OC

0
0
50
40
30
0

Data credit: patent US10259796B2
